system: PPARg:RXRa DBDmut IVT, anti-RXR (DBD mutation: RXRa K156A/R161A, NR concentration 270 nM, RXRa partner concentration 90 nM); test: PBM binding z-score (relative to random genomic background probes); higher = stronger binding; sequences stand for … in GC…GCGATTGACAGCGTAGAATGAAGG
Listed below: PBM binding z-score values for each entry.
reported-metric: PBM binding z-score

>>> test_result("TCCTGTAGATCAGCAGGTTAAGAAAGCTGGCCAA")
1.6
>>> test_result("TAGCCTAGGTCTTTGGGCCAGTATAGTACGCATC")
-0.223
>>> test_result("GCGAATGGGGCATCAGCAGGTTACCATAACTTAA")
0.757
>>> test_result("CCTATAAGTTGACCATAAGGGCAACCGAAGCTCG")
0.357
>>> test_result("TCATATAGGTAACAGGTGAAAGTCGGTGTGGTAA")
5.02
>>> test_result("ATAAGTAGGTTATCGGGTCATTCAGTTTGCGCAT")
7.58
>>> test_result("CCTACTGGGCGATCAGGTCATTGATATCAACGTT")
1.18
>>> test_result("TCGGGTAGGTTAGTCGGGGCATTCAGCCAACATA")
1.77
>>> test_result("TCTAGTAGTTGATTAGGGCAACCGAAACAGCGGA")
1.59
>>> test_result("TCTTGTATATCAAGCAGGTTAAGAAAGCCTGAGT")
1.41
>>> test_result("CCTACTGGGCCAAGGACATTGATCAGTCAAAGCA")
3.42
>>> test_result("CCTATTAGTTGACCATAAGGTCAACCGAAGCTCG")
1.02
>>> test_result("CAAACTAGGTCACCGGAAGGTCAAAGTGCGCATG")
8.63
>>> test_result("CGTCCGAGGTCAGAGAGGTCAGTGAATGCCGAGT")
3.24
>>> test_result("TCTCGGAGGACATGAAAGGTCAGAGCTCGACATC")
2.04
>>> test_result("CGAACTAGGTCATCGACAGGACAGTGAATAGTAA")
8.14
>>> test_result("TCTTGTAGATCACTAGAGGTTAAGAAAGTGCGCT")
1.81
>>> test_result("GCTAGTTGGTCACTAAAAGGTCACACACCGGTCG")
1.75
>>> test_result("TCTTGTAGATCAGCAGGTTAAAAAAGCTGGCCAA")
1.58
>>> test_result("ATCTCTAGGTAAAGGTAGTTCAGTGAATGCAAAT")
2.73
>>> test_result("CAAACTAGGTCCCAGAGGTCAAAGTCCGTGCGTA")
4.19
>>> test_result("ATCTCTAGGGAACCAAGTTCAGTGAATGCCGAAC")
0.604
>>> test_result("GCATATAGGTAAAACAAGGTGAAAGTCCGATTGT")
3.96
>>> test_result("AGAACGAGGGCAATGAGTTGATACCACGGGTGGC")
3.03
>>> test_result("CCTTACGGGTCACTCCAGGTTATAGAATCGGAGT")
2.67
>>> test_result("GCTGCTAGGTCAACTGATGATCAGCTAAAGCTCG")
4.79
>>> test_result("GGAAGGAGGGCAAGTTGATAGCAGAGTTTGATGG")
3.75
>>> test_result("CTCGAAAGATCGTGCTCAGGTGAGTATACCAAAC")
-0.285
>>> test_result("TTACCAGGGTGAAAGGTCGTTGATGCACGCCTTG")
2.27
>>> test_result("AGTCAAAGTTCAGGACGAGGCAACGTAAAGCACG")
-0.129
>>> test_result("TCGAGTAGGTTAGTCGGGGCATTCATCCAACATA")
2.52
>>> test_result("GCTCGGAGGACACGGTCAGAGCTTTGTCCGTAGA")
-0.213
>>> test_result("TAGCCTAGGACAGATCGGGCCAGTATACGCTATA")
-0.993
>>> test_result("TCGAGTAGGTTAGTCGGGGGATTCAGCCAACATA")
2.61
>>> test_result("ACTAGCAGGCCCAGGGTCACTCAAGATTAGTCCG")
-0.868
>>> test_result("CGTCCAAGGTCAAGGTCAGTGCAAGAGACTCGAA")
3.72
>>> test_result("GCTGCTAGGTCAGGTTTGTCAGCTAACGGGTACG")
3.26
>>> test_result("TCTAGTTGGTCACGGAGGTCACACAGGACGGGTA")
2.41
>>> test_result("CCAGACACGTGAGAAGGTAACTCAGCCTCGATTA")
-0.227
>>> test_result("ATCGAAAGGTCGAGGTGAATATAGAGAAAGGGAA")
0.454
>>> test_result("TCTGCTAGGTCACTTGGTCAGCTAACGAGCTGCC")
4.06
>>> test_result("TCTGCTAGGTCAACGATGGACAGCTAATCTGCTA")
3.88
>>> test_result("ATATGTATGTTATCGGGTCATTCAGTTTGCGCAT")
4.28
>>> test_result("GGAACGAGGGCAAAGTTGATACCATCTGTCGACG")
3.89
>>> test_result("CAAACTAGGACAAGGTCAAAGTCGGTTTGTGCCA")
5.64
>>> test_result("GCTATTAGTTGAGAGGGCAACCGAATGATTCTCG")
0.549
>>> test_result("TAGCCTAGGTCAGATCGGGCCATTATACGCTATA")
0.579
>>> test_result("AGCTCTAGGTAAGACTCAGTTCAGTGAAGAACGC")
2.37
>>> test_result("ACTTACGGGGCAACGAGGTTATAGCACGCGTATA")
2.66
>>> test_result("CATGCAGGGTCAGCTAGGCCAGAGTAGGGACGGC")
0.734
>>> test_result("CCAGACAGGTGAGAGGTAACTCAGTCTGGTACGC")
1.59
